# TARGET_OF_ASSAY: CgNce103 (Nakaseomyces glabratus)
# Construct: recombinant, obtained in-house as previously reported; beta-class zinc enzyme
# Sequence (Q6FTL6 1-219): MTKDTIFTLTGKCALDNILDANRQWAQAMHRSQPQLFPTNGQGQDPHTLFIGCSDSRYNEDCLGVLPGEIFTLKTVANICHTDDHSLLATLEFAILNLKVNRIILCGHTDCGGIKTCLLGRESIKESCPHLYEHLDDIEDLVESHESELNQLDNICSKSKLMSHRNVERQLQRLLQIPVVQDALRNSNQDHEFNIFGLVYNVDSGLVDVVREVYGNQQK
# TEST_NAME: stopped-flow CO2 hydrase assay
Binary call on Ki with cut-off 300 nM: strictly below means true (1), and equality or higher means false (0).

O=C(N/N=C1\SCC(=O)N1c1ccccc1F)C(O)c1ccccc1 (stereo not shown): true (1)
O=C(N/N=C1\SCC(=O)N1c1ccc(F)cc1)C(O)c1ccccc1 (stereo not shown): false (0)
O=C(N/N=C1\SCC(=O)N1c1cccc(F)c1)C(O)c1ccccc1 (stereo not shown): false (0)
Cc1ccc(N2C(=O)C(C)S/C2=N\NC(=O)C(O)c2ccccc2)cc1 (stereo not shown): true (1)
O=C(N/N=C1\SCC(=O)N1c1cccc(Cl)c1)C(O)c1ccccc1 (stereo not shown): false (0)
O=C(N/N=C1\SCC(=O)N1c1ccc(Br)cc1)C(O)c1ccccc1 (stereo not shown): false (0)
CC1S/C(=N\NC(=O)C(O)c2ccccc2)N(c2cccc(Br)c2)C1=O (stereo not shown): false (0)
O=C(N/N=C1\SCC(=O)N1c1ccc(Cl)cc1)C(O)c1ccccc1 (stereo not shown): false (0)

Input: Identify whether the molecule Cc1cccc(N2C(=O)CS/C2=N\NC(=O)C(O)c2ccccc2)c1 (stereo not shown) records Ki below 300 nM.
Output: false (0)

Input: Identify whether the molecule CC1S/C(=N\NC(=O)C(O)c2ccccc2)N(c2cccc(C(F)(F)F)c2)C1=O (stereo not shown) records Ki below 300 nM.
Output: true (1)

Input: Identify whether the molecule COc1ccc(N2C(=O)C(C)S/C2=N\NC(=O)C(O)c2ccccc2)cc1 (stereo not shown) records Ki below 300 nM.
Output: false (0)

Input: Identify whether the molecule CC1S/C(=N\NC(=O)C(O)c2ccccc2)N(c2ccc(Br)cc2)C1=O (stereo not shown) records Ki below 300 nM.
Output: true (1)

Input: Identify whether the molecule Cc1cccc(N2C(=O)C(C)S/C2=N\NC(=O)C(O)c2ccccc2)c1 (stereo not shown) records Ki below 300 nM.
Output: false (0)

Input: Identify whether the molecule O=C(N/N=C1\SCC(=O)N1c1ccccc1Br)C(O)c1ccccc1 (stereo not shown) records Ki below 300 nM.
Output: false (0)

Input: Identify whether the molecule Cc1ccc(N2C(=O)CS/C2=N\NC(=O)C(O)c2ccccc2)cc1 (stereo not shown) records Ki below 300 nM.
Output: false (0)

Input: Identify whether the molecule COc1ccc(N2C(=O)CS/C2=N\NC(=O)C(O)c2ccccc2)cc1 (stereo not shown) records Ki below 300 nM.
Output: false (0)

Input: Identify whether the molecule O=C(N/N=C1\SCC(=O)N1c1cccc(C(F)(F)F)c1)C(O)c1ccccc1 (stereo not shown) records Ki below 300 nM.
Output: true (1)

Input: Identify whether the molecule CC1S/C(=N\NC(=O)C(O)c2ccccc2)N(c2cccc(F)c2)C1=O (stereo not shown) records Ki below 300 nM.
Output: true (1)

Just for reference, paper PMC7215574 is where these values come from.
